# system-tested: adenosine A2b receptor (Homo sapiens)
# Sequence (P29275 whole entry): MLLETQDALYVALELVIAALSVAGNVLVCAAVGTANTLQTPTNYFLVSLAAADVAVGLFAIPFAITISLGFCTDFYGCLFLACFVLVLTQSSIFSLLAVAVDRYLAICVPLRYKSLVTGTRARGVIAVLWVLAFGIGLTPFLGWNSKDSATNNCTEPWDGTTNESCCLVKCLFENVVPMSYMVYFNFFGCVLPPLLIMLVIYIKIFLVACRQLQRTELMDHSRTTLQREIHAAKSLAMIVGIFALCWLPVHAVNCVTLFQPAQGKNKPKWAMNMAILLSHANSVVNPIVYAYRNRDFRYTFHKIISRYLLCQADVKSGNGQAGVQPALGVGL
# assay-explanation: Indirect determination of adenosine agonism by way of gene expression (luciferase, CHO cells), A2b
# stated-conditions: CHO cells stably transfected with A2b receptor cDNA; 50% of maximum luciferase stimulation
quantity: pEC50
Keep in mind that pEC50 stands for -log10 of concentration in molar terms.

Exercise: Give its pEC50 value. Item: N#Cc1c(N)nc(SCc2csc(-c3ccc(Cl)cc3)n2)c(C#N)c1N1CCC(O)CC1 [Example 1]
Solution: 6.94

Exercise: Give its pEC50 value. Item: N#Cc1c(N)nc(SCc2csc(-c3ccc(Cl)cc3)n2)c(C#N)c1N1CCCCC1 [Example 2]
Solution: 7.36

Exercise: Give its pEC50 value. Item: N#Cc1c(N)nc(SCc2ccc[n+]([O-])c2)c(C#N)c1N1CCCCC1 [Example 27]
Solution: 9.05

Exercise: Give its pEC50 value. Item: N#Cc1c(N)nc(SCc2coc(-c3ccc(Cl)cc3)n2)c(C#N)c1N1CCCCC1 [Example 37]
Solution: 6.39

Exercise: Give its pEC50 value. Item: N#Cc1c(SCc2csc(-c3ccc(Cl)cc3)n2)nc(N2CCC(O)C2)c(C#N)c1N1CCCCC1 (stereo not drawn) [Example 30]
Solution: 7.25

Values were extracted from patent US8703934B2.
